Recorded values, source patent US9073853B2.

- testTarget: human CXCR3-A receptor (Homo sapiens (Human), UniProt P49682)
- Sequence (P49682 whole entry): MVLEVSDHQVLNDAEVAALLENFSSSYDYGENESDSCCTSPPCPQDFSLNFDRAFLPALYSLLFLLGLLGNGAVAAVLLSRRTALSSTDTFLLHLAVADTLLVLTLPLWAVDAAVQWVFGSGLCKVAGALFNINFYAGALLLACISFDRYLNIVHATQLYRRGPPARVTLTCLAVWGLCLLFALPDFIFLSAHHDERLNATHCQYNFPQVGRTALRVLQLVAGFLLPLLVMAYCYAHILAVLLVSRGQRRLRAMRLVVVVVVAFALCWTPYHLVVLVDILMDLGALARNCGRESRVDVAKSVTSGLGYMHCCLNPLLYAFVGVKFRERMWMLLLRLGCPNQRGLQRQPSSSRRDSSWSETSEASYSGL
- experimentalDetails: 125I-CXCL10 competition radioligand binding assay
- testConditions: displacement of 125I-CXCL10 from membranes of CHO cells expressing human recombinant CXCR3-A
Counter-ions that a name gives are not always drawn.
recordedEndpoint: pIC50
pIC50 here: minus log base 10 of the concentration, concentration in moles per litre.

Below: 2 compounds and their reported pIC50.
# compound, assayValue
records = [
    ("COc1cc(CN(C[C@H]2CC[C@H](C(=O)O)CC2)[C@@H](C)c2ccc(Cl)cc2)ccc1OCCN1C(=O)CSC1=O [Example 34]", 7.66),
    ("COc1cc(CN(C[C@H]2CC[C@H](C(=O)O)CC2)[C@H]2CCc3cc(Cl)ccc32)ccc1OCCN1C(=O)c2ccccc2C1=O [Example 156, hydrochloride]", 7.10),
]

Pending compound:
Challenge: Report pIC50 for CC(c1ccc(Cl)c(F)c1)N(Cc1ccc(OCCN2C(=O)CCC2=O)c(F)c1)C[C@H]1CC[C@H](C(=O)O)CC1 (stereo partly drawn) [Example 92] please.
Response given: 6.66

====

- testTarget: human CXCR3-A receptor (Homo sapiens (Human))
- experimentalDetails: 125I-CXCL10 competition radioligand binding assay
- testConditions: displacement of 125I-CXCL10 from membranes of CHO cells expressing human recombinant CXCR3-A
Where a name gives a salt, the structure may show the parent alone.
So basically: is IC50 under 300 nM? Then Fulfilled. Not under? Then Not fulfilled.

Consider the worked cases shown below.
# compound, discreteLabel
data = [
    ("COc1cc(CN(C[C@H]2CC[C@H](C(=O)O)CC2)[C@H]2CCc3cc(Cl)ccc32)ccc1OCCN1C(=O)[C@H]2CC=CC[C@H]2C1=O [Example 155, hydrochloride]", "Not fulfilled"),
    ("COc1cc(CN(C[C@H]2CC[C@H](C(=O)O)CC2)[C@H]2CCc3cc(Cl)ccc32)ccc1OCCN1C(=O)C2CC2C1=O (stereo partly drawn)", "Fulfilled"),
]

Challenge: IC50 strictly < 300 nM for this compound? `COc1cc(CN(C[C@H]2CC[C@H](C(=O)O)CC2)[C@@H](C)c2ccc(Cl)cc2)ccc1OCCN1C(=O)COC1=O`
Response given: Fulfilled

Challenge: IC50 strictly < 300 nM for this compound? Cc1cc(CN(C[C@H]2CC[C@H](C(=O)O)CC2)C(C)c2ccc3c(c2)CCO3)ccc1OCCn1c(=O)ccn(C)c1=O (stereo partly drawn)
Response given: Not fulfilled

Challenge: IC50 strictly < 300 nM for this compound? `CCc1cc(CN([C@H]2C[C@@H](C(=O)O)C2)[C@H](C)c2ccc(Cl)c(F)c2)ccc1OCCN1C(=O)CCC1=O`
Response given: Not fulfilled

====

Listing of recorded IC50 by entry.
- testTarget: UniProtKB P49682
- experimentalDetails: 125I-CXCL10 competition radioligand binding assay
- testConditions: displacement of 125I-CXCL10 from membranes of CHO cells expressing human recombinant CXCR3-A
Give the value in nM but do not write nM after it.

# compound, assayValue
records = [
    ("CCC(c1ccc(Cl)cc1)N(Cc1ccc(OCCN2C(=O)CCC2=O)c(OC)c1)C[C@H]1[C@H](C(=O)O)C1(C)C (stereo partly shown)", 71),
    ("COc1cc(CN(C[C@H]2CC[C@H](C(=O)O)CC2)[C@H]2CCc3cc(Cl)ccc32)ccc1SCCN1C(=O)CCC1=O", 23),
    ("COc1cc(CN(C[C@H]2CC[C@H](C(=O)O)CC2)C2CCc3cc(Cl)ccc32)ccc1OCCN1C(=O)CCC1=O (stereo partly shown)", 64),
]

Challenge: Any idea what IC50 came out for `Cc1cc(CN(C[C@H]2CC[C@H](C(=O)O)CC2)[C@H]2CCc3c2ccc(Cl)c3F)ccc1OCCN1C(=O)CN(C)C1=O` on UniProtKB P49682?
Response given: 71
